Target: Human Neutrophil Elastase (HNE) (Homo sapiens, UniProt P08246)
Construct: Human Neutrophil Elastase (HNE) purified from serum (Calbiochem art. 324681)
Sequence (P08246 30-267): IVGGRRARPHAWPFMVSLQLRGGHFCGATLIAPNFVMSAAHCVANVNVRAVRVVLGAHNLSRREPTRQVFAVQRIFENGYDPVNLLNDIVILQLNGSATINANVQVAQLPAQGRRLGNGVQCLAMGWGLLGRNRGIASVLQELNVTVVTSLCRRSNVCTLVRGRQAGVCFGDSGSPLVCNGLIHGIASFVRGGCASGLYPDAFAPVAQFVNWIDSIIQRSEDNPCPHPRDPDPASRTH
Test: Human Neutrophil Elastase Quenched-FRET Assay
Settings: HNE purified from serum; substrate MeOSuc-AAPV-AMC; 15 min pre-incubation, 30 min incubation at room temperature; read-out: Inhibition of Human Neutrophil Elastase IC50
# IC50 per record follows

[
  {
    "molecule": "Cc1ccc(CNC(=O)c2nc3ccccc3n(-c3cccc(C(F)(F)F)c3)c2=O)cc1",
    "subject-of-test": "Human Neutrophil Elastase (HNE) (Homo sapiens, UniProt P08246)",
    "IC50 / nM": 226
  },
  {
    "molecule": "O=C(NCCc1ccc(F)cc1)c1nc2ccccc2n(-c2cccc(C(F)(F)F)c2)c1=O",
    "subject-of-test": "Human Neutrophil Elastase (HNE) (Homo sapiens, UniProt P08246)",
    "IC50 / nM": 573
  },
  {
    "molecule": "N#CC1CCC(CNC(=O)c2nc3ccccc3n(-c3cccc(C(F)(F)F)c3)c2=O)CC1 (stereo not drawn)",
    "subject-of-test": "Human Neutrophil Elastase (HNE) (Homo sapiens, UniProt P08246)",
    "IC50 / nM": 248
  }
]

// data source = patent US20060270666A1
